- Test Details: Single dose PK/TK, minipig
- Assay type: in vivo
- Test Parameters: male, Gottingen, in vivo; minipig 3M, DMW12, single oral 16.9 mg/kg (78.1 μmol/kg), solution, fed
Measured Metric: Tmax

c1cnc2c(c1)C[C@@]1(CN3CCC1CC3)O2 ... 1 to 4 h

----------
- Test Details: Multiple dose PK/TK, rat
- Format: in vivo
- Test Parameters: female, rat, in vivo, po, 64.9 mg/kg, rat 4F, 0612AR, 64.9 mg/kg (300 μmol/kg), day 1
Measured Metric: Tmax

c1cnc2c(c1)C[C@@]1(CN3CCC1CC3)O2 [AZD0328] ... 1 to 3 h

----------
- Test Details: Single oral dose pharmacokinetics in healthy human volunteers
- Assay type: in vivo
- Test Parameters: human, plasma; single oral dose 0.005 mg, geometric mean
Measured Metric: Cmax (nM)

c1cnc2c(c1)C[C@@]1(CN3CCC1CC3)O2 ... 0.17

----------
- Test Details: Multiple dose PK/TK, rabbit
- Format: in vivo
- Test Parameters: female, New Zealand White, in vivo, sc; rabbit 3F, DMB15, subcutaneous 3.84 mg/kg (10 μmol/kg), day 18
Measured Metric: Tmax

c1cnc2c(c1)C[C@@]1(CN3CCC1CC3)O2 ... 0.483 to 2.18 h

----------
- Test Details: Multiple dose PK/TK, dog
- Assay type: in vivo
- Test Parameters: female, Beagle, dog, in vivo, po, 8.65 mg/kg, dog 3F, 0295AD, 8.65 mg/kg (40 μmol/kg) split in two 6 h apart, capsules fed, day 35
Measured Metric: Tmax

c1cnc2c(c1)C[C@@]1(CN3CCC1CC3)O2 [AZD0328] ... 1 to 9 h

----------
- Test Details: Multiple dose PK/TK, rat
- Format: in vivo
- Test Parameters: female, rat, in vivo, po, 2.16 mg/kg, rat 4F, 0612AR, 2.16 mg/kg (10 μmol/kg), day 30
Measured Metric: Tmax at 30 day

c1cnc2c(c1)C[C@@]1(CN3CCC1CC3)O2 ... 1 h

----------
- Test Details: Multiple dose PK/TK, rat
- Type: in vivo
- Test Parameters: male, rat, in vivo, po, 2.16 mg/kg, rat 4M, 0612AR, 2.16 mg/kg (10 μmol/kg), day 1
Measured Metric: Tmax at 1 day (h)

c1cnc2c(c1)C[C@@]1(CN3CCC1CC3)O2 ... 1
